# Test system: NCI-H522 lung
# Procedure Details: NCI tumour cell line growth inhibition, 48 h; in the data active = GI50 below about 0.43 µM; inactive = the rest
Outcomes: true (active), false (inactive)

>  <Compound>
CSc1ccc2c(c1)C(=O)c1c-2n(CCCN=[N+]=[N-])c(=O)c2cc([N+](=O)[O-])ccc12

>  <Class Name>
false

$$$$
>  <Compound>
O=C1[C@H](c2ccccc2)C2c3ccccc3CCN12 (stereo partly specified)

>  <Class Name>
false

$$$$
>  <Compound>
CCOCC[P+](c1ccccc1)(c1ccccc1)c1ccccc1

>  <Class Name>
false

$$$$
>  <Compound>
COc1ccc2oc(-c3ccc(Cl)cc3)c(N3CCN(C)CC3)c2c1

>  <Class Name>
false

$$$$
>  <Compound>
Cc1cccc2c(=O)c3c(sc12)c(NCCN)nc1ccccc13

>  <Class Name>
false

$$$$
>  <Compound>
COc1ccc(C2SC(C)C(=O)N2NC(=O)C(O)c2ccccc2)cc1 (stereo unspecified)

>  <Class Name>
false

$$$$
>  <Compound>
Cc1ccc(S(=O)(=O)N2C/C(=C\c3cc(F)cc(F)c3)C(=O)/C(=C/c3cc(F)cc(F)c3)C2)cc1

>  <Class Name>
true

$$$$
>  <Compound>
COC(C(=O)[C@@H](O)[C@@H](C)O)[C@@H]1Cc2cc3cc(O[C@H]4C[C@@H](O[C@H]5C[C@@H](O)[C@H](O)C(C)O5)[C@H](O)C(C)O4)c(C)c(O)c3c(O)c2C(=O)[C@H]1O[C@H]1C[C@@H](O[C@H]2C[C@@H](O[C@H]3C[C@@H](O)[C@@H](O)C(C)O3)[C@@H](O)C(C)O2)[C@H](O)C(C)O1 (stereo partly specified)

>  <Class Name>
true

$$$$
>  <Compound>
Cc1ccc(C2CC(c3cccc(Nc4ccncc4)c3)=NN2c2ccc(Cl)cc2)cc1 (stereo unspecified)

>  <Class Name>
false

$$$$
>  <Compound>
CCN1CCN(Cc2ccc3cc(C(=O)Nc4cc(NC(=O)c5ccc6c(c5)OCCO6)ccc4F)ccc3n2)CC1

>  <Class Name>
true

$$$$
>  <Compound>
CCOC(=O)C1=C(N)Oc2cc(OC)ccc2C1c1ccc(F)c(F)c1 (stereo unspecified)

>  <Class Name>
false

$$$$
>  <Compound>
N=C(N)c1ccc(-c2ccc(-c3cc(Cl)cc(Cl)c3)s2)nc1

>  <Class Name>
false

$$$$
>  <Compound>
O=C(Nc1cc(Cl)cc(Cl)c1)c1ccc(NC2=C(Cl)C(=O)N(Cc3ccccc3)C2=O)cc1

>  <Class Name>
false

$$$$
>  <Compound>
COc1cc2c(/C=C3/C(=O)Nc4c3ccc3ccccc43)c(Cl)[nH]c2cc1C

>  <Class Name>
true

$$$$
>  <Compound>
COc1cccc(-c2cc(NCc3ccc4c(c3)OCO4)nc(N)n2)c1

>  <Class Name>
true

$$$$
>  <Compound>
CC1=C(C(=O)Nc2ccc(Cl)c(Cl)c2)C(c2cccc(O)c2)NC(=S)N1 (stereo unspecified)

>  <Class Name>
false

$$$$
>  <Compound>
COc1ccc2cc(C(=O)/C=C/c3ccccc3OC)ccc2c1

>  <Class Name>
false

$$$$
>  <Compound>
C(#Cc1ccccc1C#Cc1ccccn1)c1ccc(OCCCCCCOc2ccc(C#Cc3ccccc3C#Cc3ccccn3)cc2)cc1

>  <Class Name>
false

$$$$
>  <Compound>
COc1ccc(/C=C2\CCCC3=C2N=C2SC=NN2C3c2ccc(OC)c(OC)c2)cc1OC (stereo unspecified)

>  <Class Name>
false

$$$$
>  <Compound>
O=C(O)c1cn(C2CC2)c2cc(N3CCN(C(=O)Nc4nc(-c5ccc(Cl)cc5)cs4)CC3)c(F)cc2c1=O

>  <Class Name>
false

$$$$
>  <Compound>
C[C@H]1[C@H](C)CC[C@]2(C(=O)O)CC[C@]3(C)C(=CC[C@@H]4[C@@]5(C)CC[C@H](OC(=O)/C=C\c6ccc(O)cc6)C(C)(C)[C@@H]5CC[C@]43C)[C@H]12

>  <Class Name>
false

$$$$

###

# Test system: CCRF-CEM leukemia
# Procedure Details: NCI tumour cell line growth inhibition, 48 h
Listed compounds paired with reported TGI

>  <Compound>
O=C(CN1C(=O)c2ccccc2C1=O)OCC1CCCN2CCCCC12 (stereo not given)

>  <TGI>
> 100 µM

$$$$
>  <Compound>
CC1(c2nc3cc(Cl)c(Cl)cc3[nH]2)CCC(C(=O)O)C(C)(C)O1 (stereo not given)

>  <TGI>
> 100 µM

$$$$
>  <Compound>
CN(CCNC(=O)c1cc(-c2ccccc2)nc2ccccc12)CCNC(=O)c1cc(-c2ccccc2)nc2ccccc12

>  <TGI>
> 100 µM

$$$$
>  <Compound>
O=C(/C=C/c1ccc2c(c1)OCO2)c1ccccc(=O)c1O

>  <TGI>
3.93 µM

$$$$
>  <Compound>
O=C(Nc1cc(Cl)cc(Cl)c1)c1ccc(NC2=C(Cl)C(=O)N(Cc3ccccc3)C2=O)cc1

>  <TGI>
12.1 µM

$$$$

###

# Tested on: BT-549 breast
# Procedure Details: NCI tumour cell line growth inhibition, 48 h; in the data active means GI50 below about 0.43 µM; inactive means the rest
Labels: active, inactive

>  <Compound>
OCCCNC(=S)Nc1ccc(-c2nc3ccccc3s2)cc1

>  <Assay System>
BT-549 breast

>  <Class Name>
inactive

$$$$
>  <Compound>
CC1=C(C(=O)Nc2ccc(Cl)c(Cl)c2)C(c2cccc(O)c2)NC(=S)N1 (stereo unspecified)

>  <Assay System>
BT-549 breast

>  <Class Name>
inactive

$$$$
>  <Compound>
O=C(Nc1cc(Cl)cc(Cl)c1)c1ccc(NC2=C(Cl)C(=O)N(Cc3ccccc3)C2=O)cc1

>  <Assay System>
BT-549 breast

>  <Class Name>
inactive

$$$$
>  <Compound>
CCN(CC)CCCC(C)Nc1ccnc2cc(Cl)c(SCc3ccccc3)cc12 (stereo unspecified)

>  <Assay System>
BT-549 breast

>  <Class Name>
inactive

$$$$
>  <Compound>
C#CCOc1c(OC)cc(C(=O)/C(C)=C/c2cccc(N=[N+]=[N-])c2)cc1OC

>  <Assay System>
BT-549 breast

>  <Class Name>
active

$$$$
>  <Compound>
COc1cc2c(cc1C)NC(=O)/C2=C/c1c(C)nc2sc(C)cn12

>  <Assay System>
BT-549 breast

>  <Class Name>
inactive

$$$$
>  <Compound>
O=C(O)c1cn(C2CC2)c2cc(N3CCN(C(=O)Nc4nc(-c5ccc(Cl)cc5)cs4)CC3)c(F)cc2c1=O

>  <Assay System>
BT-549 breast

>  <Class Name>
inactive

$$$$
>  <Compound>
Cn1cc(-c2nc(-c3cn(C)c4ncccc34)cs2)c2cc(F)ccc21

>  <Assay System>
BT-549 breast

>  <Class Name>
inactive

$$$$
>  <Compound>
Nc1nn(C(=O)Nc2ccc(Cc3ccccc3)cc2)c2ccccc12

>  <Assay System>
BT-549 breast

>  <Class Name>
inactive

$$$$
>  <Compound>
N#CC(C#N)=Cc1ccc(-c2ccc(-c3nc4ccccc4s3)cc2)s1

>  <Assay System>
BT-549 breast

>  <Class Name>
inactive

$$$$
>  <Compound>
C(#Cc1ccccc1C#Cc1ccccn1)c1ccc(OCCCCCCOc2ccc(C#Cc3ccccc3C#Cc3ccccn3)cc2)cc1

>  <Assay System>
BT-549 breast

>  <Class Name>
inactive

$$$$

###

# Tested on: OVCAR-5 ovarian
# Procedure Details: NCI tumour cell line growth inhibition, 48 h; in the data active = GI50 below about 0.43 µM; inactive = the rest
Where a SMILES comes first, the peptide text is derived from it. Bridges are numbered along the chain shown (N, C = ends). Roman numbers before positions name the chains, in order. [ ]: non-standard residue; d: D form. The star is where a group is joined. Heptadecanoyl = CCCCCCCCCCCCCCCCC(=O)*; Phg = N[CH](C(=O)O)c1ccccc1; Orn = NCCC[CH](N)C(=O)O
Possible outcomes: True for active, False for inactive

>  <Molecule>
COc1ccc(C2SC(C)C(=O)N2NC(=O)C(O)c2ccccc2)cc1 (stereo not given)

>  <Class Name>
False

$$$$
>  <Molecule>
Cc1cccc2c(=O)c3c(sc12)c(NCCN)nc1ccccc13

>  <Class Name>
False

$$$$
>  <Molecule>
Cc1cc(Cl)ccc1Nc1nc(C(F)(F)F)ccc1C(=O)N/N=C/c1c(Cl)cccc1Cl

>  <Class Name>
False

$$$$
>  <Molecule>
Cc1ccc(C2CC(c3cccc(Nc4ccncc4)c3)=NN2c2ccc(Cl)cc2)cc1 (stereo not given)

>  <Class Name>
False

$$$$
>  <Molecule>
CC(=O)/C=C/c1ccc(N(C)Cc2ccc(C(C)(C)C)cc2)cc1

>  <Class Name>
False

$$$$
>  <Molecule>
CCCCCCCCCCCCCCCCC(=O)N1CCCC1C(=O)NCC(=O)NC(C(=O)N1CCCC1C(=O)NC(CO)C(=O)NC(Cc1ccc(O)cc1)C(=O)NC(CCCCNC(=O)C1CCCN1C(=O)C(CCCCN)NC(=O)C(CCCCN)NC(=O)C(CCCCN)NC(=O)C(CCCNC(=N)N)NC(=O)C(CCCCN)NC(=O)C(N)C(C)C)C(=O)NC(CC(C)C)C(=O)NC(CCCNC(=N)N)C(=O)N1CCCC1C(=O)NCC(N)=O)c1ccccc1 (stereo not given) (I: Heptadecanoyl-PG[Phg]PSYKLRPG-NH2 / II: H-VKRKKKP; amide I:7-II:C; configuration not given here)

>  <Class Name>
False

$$$$
>  <Molecule>
COc1ccc2c(c1)c(=O)oc1cc(OC/C(=N\O)c3ccc(F)cc3)ccc12

>  <Class Name>
False

$$$$
>  <Molecule>
CC(C)CC1NC(=O)C(CCCN)NC(=O)C(C(C)C)NC(=O)C2CCCN2C(=O)C(Cc2ccccc2)NC(=O)C(CC(C)C)NC(=O)C(CCCN)NC(=O)C(C(C)C)NC(=O)C2CCCN2C(=O)C(Cc2ccccc2)NC1=O (stereo not given) (cyclo(FPV[Orn]LFPV[Orn]L); configuration not given here)

>  <Class Name>
True

$$$$
>  <Molecule>
O=C(CN/C=C\C(=O)c1cc(Cl)ccc1Cl)c1ccccc1

>  <Class Name>
False

$$$$
>  <Molecule>
COc1ccc2cc(C(=O)/C=C/c3ccccc3OC)ccc2c1

>  <Class Name>
False

$$$$
>  <Molecule>
O=C(Nc1ncc(Cc2ccc(Cl)cc2)s1)c1ccc2c(c1)OCCO2

>  <Class Name>
True

$$$$
>  <Molecule>
O=C1C=CC(=O)N1CCCCCCCCCCN1C(=O)C=CC1=O

>  <Class Name>
False

$$$$
>  <Molecule>
COc1cc([C@@H]2c3cc4c(cc3[C@H](O)[C@H]3COC(=O)[C@@H]23)OCO4)cc(OC)c1OC

>  <Class Name>
False

$$$$
>  <Molecule>
COc1cccc(-c2cc(NCc3ccc4c(c3)OCO4)nc(N)n2)c1

>  <Class Name>
False

$$$$
>  <Molecule>
CC1=C(C(=O)Nc2ccc(Cl)c(Cl)c2)C(c2cccc(O)c2)NC(=S)N1 (stereo not given)

>  <Class Name>
False

$$$$
